// data source = patent US12600728B2

In this section we review reported pIC50 values for a set of compounds.
Subject Of Test: recombinant human IL-17AA (Homo sapiens, UniProt Q16552)
Sequence (Q16552 24-155): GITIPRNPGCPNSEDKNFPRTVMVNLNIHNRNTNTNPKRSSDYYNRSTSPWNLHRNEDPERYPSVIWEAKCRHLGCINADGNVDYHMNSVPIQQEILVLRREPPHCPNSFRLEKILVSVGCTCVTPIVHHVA
Assay Name: IL-6 release from NHDF cells, IL-17AA plus TNF-α stimulation
Assay type: cell-based
Test Settings: IL17AA + TNF IC50 IL-6, NHDF cells, IL-17AA 30 pM + TNF-α 6 pM, 24 hours, IL-6 by ELISA
Lab note: report pIC50 as minus log10 of the concentration in molar units, number only.

Example cases with answers are listed next.
Compound: CCn1nccc1C(=O)N[C@H](C(=O)Nc1ccc(-c2cc(Cl)c[n+]([O-])c2C)cc1)C1CCC(F)(F)CC1
Subject Of Test: recombinant human IL-17AA (Homo sapiens, UniProt Q16552)
pIC50: 6.64
//
Compound: Cc1cc[n+]([O-])c(C)c1-c1ccc(NC(=O)C(NC(=O)c2ccnn2C)C2C=C(F)CCC2)cc1 (centres unmarked)
Subject Of Test: recombinant human IL-17AA (Homo sapiens, UniProt Q16552)
pIC50: 6.85
//
Compound: Cc1c(-c2ccc(NC(=O)[C@@H](NC(=O)c3ccnn3C)C3CCC(F)(F)CC3)cc2F)cc(Cl)c[n+]1[O-]
Subject Of Test: recombinant human IL-17AA (Homo sapiens, UniProt Q16552)
pIC50: 6.54
//
Compound: Cc1c(-c2ccc(NC(=O)C(NC(=O)c3ccnn3C)[C@H]3C[C@@H]4C[C@@H]4C3)cc2F)c(Cl)cc[n+]1[O-] (some centres unmarked)
Subject Of Test: recombinant human IL-17AA (Homo sapiens, UniProt Q16552)
pIC50: 7.92
//
Compound: Cc1cc(-c2ccc(NC(=O)[C@@H](NC(=O)c3ccnn3C)C3CCC(F)(F)CC3)cc2)c(C)[n+]([O-])c1
Subject Of Test: recombinant human IL-17AA (Homo sapiens, UniProt Q16552)
pIC50: 6.40

Prompt: Quick check: pIC50 of "CCn1nccc1C(=O)N[C@H](C(=O)Nc1ccc(-c2c(C)cc[n+]([O-])c2C)cc1)C1CCC(F)(F)CC1" ?
Completion: 7.51

Prompt: Also Cc1c(-c2ccc(NC(=O)C(NC(=O)c3ccnn3C)C3CCCC(F)(F)C3)cc2)c(Cl)cc[n+]1[O-] (centres unmarked) , if possible.
Completion: 7.28

Prompt: Next compound up: "Cc1c(-c2ccc(NC(=O)[C@@H](NC(=O)c3ccnn3C)C3CCCCC3)cc2)cc(Cl)c[n+]1[O-]"
Completion: 6.89

###

Subject Of Test: biotinylated human IL-17A / AF647-labeled human IL-17RA (Homo sapiens, UniProt Q16552)
Sequence (Q16552 24-155): as above
Assay Name: Human IL-17A×IL-17RA TR-FRET assay
Format: binding
Test Settings: TR-FRET, biotinylated human IL-17A 5 nM, AF647-labeled human IL-17RA 30 nM; read-out: IL17AA FRET/ IL17Rawt IC50
The label is Satisfied for IC50 below 100 nM and Not satisfied for IC50 equal to or exceeding 100 nM.

Answered examples (5):
Compound: Cc1nscc1C(=O)N[C@H](C(=O)Nc1ccc(-c2c(Cl)cc[n+]([O-])c2C)c(F)c1)C1CCCCC1 [Example 17]
Discrete Label: Not satisfied
--
Compound: Cc1c(-c2ccc(NC(=O)[C@@H](NC(=O)c3ccnn3C)C3CCCCC3)c(F)c2F)c(Cl)cc[n+]1[O-] [Example 62]
Discrete Label: Satisfied
--
Compound: Cc1cc[n+]([O-])c(C)c1-c1ccc(NC(=O)[C@@H](NC(=O)c2ccnn2C(C)C)[C@H]2CCCc3ccccc32)cc1 [Example 50]
Discrete Label: Satisfied
--
Compound: Cc1c(-c2ccc(NC(=O)[C@@H](NC(=O)c3ccnn3C)C3CCCCCC3)cc2)c(Cl)cc[n+]1[O-] [Example 47]
Discrete Label: Satisfied
--
Compound: CCc1nocc1C(=O)N[C@H](C(=O)Nc1ccc(-c2c(C(F)(F)F)cc[n+]([O-])c2C)cc1)C1CCCC1 [Example 5]
Discrete Label: Satisfied

Prompt: Consider Cc1c[n+]([O-])cc(C)c1-c1ccc(NC(=O)[C@@H](NC(=O)c2ccc3n2CCNC3)C2CCCCCC2)cc1 [Example 116] . Does its IC50 lie strictly below 100 nM?
Completion: Not satisfied

Prompt: Another compound to look at: Cc1cc[n+]([O-])c(C)c1-c1ccc(NC(=O)[C@H](Cc2ccccc2)NC(=O)c2ccnn2C)cc1 [Example 75]
Completion: Not satisfied

Prompt: Cool, now CC(=O)N1CCn2c(ccc2C(=O)N[C@H](C(=O)Nc2ccc(-c3c(Cl)cc[n+]([O-])c3C)c(F)c2)C2CCCCCC2)C1 [Example 134]
Completion: Satisfied

Prompt: # iterate: Cc1c(-c2ccc(NC(=O)[C@@H](NC(=O)c3ccc4n3CCN(C)C4)C3CCCCC3)cc2F)c(Cl)cc[n+]1[O-] [Example 124]
Completion: Not satisfied

Prompt: Similarly, Cc1cc[n+]([O-])c(C)c1-c1ccc(NC(=O)[C@@H](NC(=O)c2ccnn2C(C)C)C(c2ccccc2)c2ccccc2)cc1 [Example 68] ?
Completion: Satisfied

Prompt: Repeat for the following compound: Cn1nccc1C(=O)N[C@H](C(=O)Nc1ccc(-c2c[n+]([O-])ccc2Cl)cc1)C1CCCCC1 [Example 112]
Completion: Not satisfied

###

Subject Of Test: biotinylated human IL-17A / AF647-labeled human IL-17RA (Homo sapiens, UniProt Q16552)
Assay Name: Human IL-17A×IL-17RA TR-FRET assay
Type: binding
Test Settings: TR-FRET, biotinylated human IL-17A 5 nM, AF647-labeled human IL-17RA 30 nM; read-out: IL17AA FRET/ IL17Rawt IC50
Measurement Label: IC50

Below, each entry is followed by its recorded IC50 result.
Molecule: Cc1cc(-c2ccc(NC(=O)[C@@H](NC(=O)c3ccnn3C)C3CCCCC3)cc2)c(C)[n+]([O-])c1
Measurement Label: IC50
Test Value: 339 nM
--
Molecule: Cc1cc[n+]([O-])c(C)c1-c1ccc(NC(=O)[C@H](Cc2ccccc2Cl)NC(=O)c2ccc3n2CCN(C)C3)cc1
Measurement Label: IC50
Test Value: 124 nM
--
Molecule: CCc1nocc1C(=O)N[C@H](C(=O)Nc1ccc(-c2c(C)cc[n+]([O-])c2C)cc1)C1CCCC1
Measurement Label: IC50
Test Value: 81 nM

Shifting focus to the molecule that follows.
Prompt: Dear colleague, I am looking for the recorded IC50 of the following molecule: Cc1c(-c2ccc(NC(=O)[C@@H](NC(=O)c3ccnn3C)C3CCCCC3)cc2F)c(Cl)cc[n+]1[O-] [Example 2]
Completion: 24 nM

###

Subject Of Test: biotinylated human IL-17A / AF647-labeled human IL-17RA (Homo sapiens, UniProt Q16552)
Assay Name: Human IL-17A×IL-17RA TR-FRET assay
Format: binding
Test Settings: TR-FRET, biotinylated human IL-17A 5 nM, AF647-labeled human IL-17RA 30 nM; read-out: IL17AA FRET/ IL17Rawt IC50
Labelling: IC50 reported below 90 nM becomes Condition met; at or above becomes Condition not met.

Use these answered entries as a reference point.
Compound: CCn1nccc1C(=O)NC(C(=O)Nc1ccc(-c2c(Cl)cc[n+]([O-])c2C)cc1)C1CCC(C(F)(F)F)CC1 (centres unmarked)
Subject Of Test: biotinylated human IL-17A / AF647-labeled human IL-17RA (Homo sapiens, UniProt Q16552)
Discrete Label: Condition not met

Compound: COCc1nocc1C(=O)N[C@H](C(=O)Nc1ccc(-c2c(C)cc[n+]([O-])c2C)cc1)C1CCC(F)(F)CC1
Subject Of Test: biotinylated human IL-17A / AF647-labeled human IL-17RA (Homo sapiens, UniProt Q16552)
Discrete Label: Condition not met

Compound: Cc1cc[n+]([O-])c(C)c1-c1ccc(NC(=O)[C@@H](NC(=O)c2ccnn2C)C2CCCC2)cc1
Subject Of Test: biotinylated human IL-17A / AF647-labeled human IL-17RA (Homo sapiens, UniProt Q16552)
Discrete Label: Condition not met

Compound: Cc1c(-c2c(F)cc(NC(=O)[C@@H](NC(=O)c3ccnn3C)C3CCCCC3)cc2F)c(Cl)cc[n+]1[O-]
Subject Of Test: biotinylated human IL-17A / AF647-labeled human IL-17RA (Homo sapiens, UniProt Q16552)
Discrete Label: Condition met

Compound: CCc1nocc1C(=O)NC(C(=O)Nc1ccc(-c2c(Cl)cc[n+]([O-])c2C)cc1)C1CCC(F)(F)CC1 (centres unmarked)
Subject Of Test: biotinylated human IL-17A / AF647-labeled human IL-17RA (Homo sapiens, UniProt Q16552)
Discrete Label: Condition met

Prompt: Just wondering, is IC50 of Cc1c(-c2ccc(NC(=O)C(NC(=O)c3ccnn3C)C3CCC(C)CC3)cc2)c(Cl)cc[n+]1[O-] (centres unmarked) below 90 nM?
Completion: Condition met

Prompt: Further, for "Cc1cc[n+]([O-])c(C)c1-c1ccc(NC(=O)[C@@H](NC(=O)c2ccc3n2CCN(C2CC2)C3)C2CCCCC2)cc1" ?
Completion: Condition not met

Prompt: Try this compound too: "Cc1c(-c2ccc(NC(=O)[C@@H](NC(=O)c3ccnn3C)C3CCCCC3)cc2F)c(C(F)(F)F)cc[n+]1[O-]"
Completion: Condition met

Prompt: Please give the result for "Cc1cc[n+]([O-])cc1-c1ccc(NC(=O)[C@@H](NC(=O)c2ccnn2C)C2CCCCC2)cc1" too.
Completion: Condition not met

Prompt: Entry "Cc1nocc1C(=O)N[C@H](C(=O)Nc1ccc(-c2c(C(F)(F)F)cc[n+]([O-])c2C)cc1)C1CCCC1" please
Completion: Condition met
